Read-out: Cytochrome P450 2B6 (Homo sapiens) (UniProt P20813)
Experiment: CLD_CYP2B6_24hr: CellzDirect (CLD) Gene Expression Assay for xenobiotic metabolism (CYP2B6) at 24 hours (AID 2283686)
Inconclusive results are not listed. The source made the active and inactive calls. Rule for the calls: active = hit-call score of the fitted dose curve at least 0.9, where 1 is the maximum; inconclusive = response in the unintended direction; inactive = score below 0.9.
Outcome codes: yes (1) (active), no (0) (inactive)

                                    compound  group_label
 0  OC(c1ccc(Cl)cc1)(c1ccc(Cl)cc1)C(Cl)(Cl)Cl      yes (1)
 1  C=CCOC(=O)C(C)(C)OC(=O)c1cc(-n2c(=O)cc(C(F)(F)F)n(C)c2=O)ccc1Cl      yes (1)
 2  CC1(C)CCC(=Cc2ccc(Cl)cc2)C1(O)Cn1cncn1 (centres undefined)      yes (1)
 3              Nc1c(Cl)c(F)nc(OCC(=O)O)c1Cl       no (0)
 4  CCOC(=O)C(C)OC(=O)c1cc(Oc2ccc(C(F)(F)F)cc2Cl)ccc1[N+](=O)[O-] (centres undefined)      yes (1)
 5  CC(C)=CC1C(C(=O)OCc2coc(Cc3ccccc3)c2)C1(C)C (centres undefined)      yes (1)
 6  CO/N=C(/C1=NOCCO1)c1ccccc1Oc1ncnc(Oc2ccccc2Cl)c1F       no (0)
 7  CS(=O)(=O)c1cc(C(F)(F)F)ccc1C(=O)c1cnoc1C1CC1      yes (1)
 8  CS(=O)(=O)c1ccc(C(=O)C2C(=O)CCCC2=O)c([N+](=O)[O-])c1       no (0)
 9  CCOc1nc(F)cc2nc(S(=O)(=O)Nc3c(Cl)cccc3Cl)nn12      yes (1)
10      Cc1ccc(N=CN(C)C=Nc2ccc(C)cc2C)c(C)c1       no (0)
11  Cc1cnc(C2=NC(C)(C(C)C)C(=O)N2)c(C(=O)O)c1 (centres undefined)       no (0)
12              O=C(O)c1c(Cl)ccc2cc(Cl)cnc12       no (0)
13             COP(=S)(OC)SCn1nnc2ccccc2c1=O      yes (1)
14     CC(C)N1C(=O)N(c2ccccc2)CSC1=NC(C)(C)C      yes (1)
15  CCOc1cc(C(C)(C)C)ccc1C1COC(c2c(F)cccc2F)=N1 (centres undefined)      yes (1)
16          CCN(CC)c1nc(C)cc(OP(=S)(OC)OC)n1      yes (1)
17             CC(C)N1C(=O)c2ccccc2NS1(=O)=O       no (0)
18                CC1(C)CON(Cc2ccccc2Cl)C1=O      yes (1)
19               Nc1c(Cl)c(Cl)nc(C(=O)O)c1Cl       no (0)
20  COCC(C)N(C(=O)CCl)c1c(C)csc1C (centres undefined)      yes (1)
21    CC(C)Oc1cccc(NC(=O)c2ccccc2C(F)(F)F)c1      yes (1)
22               Clc1nc(Cl)nc(Nc2ccccc2Cl)n1       no (0)
23                         N#Cc1c(Cl)cccc1Cl      yes (1)
